- Tested on: Neisseria gonorrhoeae
- procedure.text: EC50 determination: plate-based broth growth assay (absorbance at 600 nm) of Neisseria gonorrhoeae
- Assay type: cell-based
- experimental.setup: absorbance 600 nm after 20 hours at 37° C./5% CO2, read-out: IC50 (Inhibitory concentration) against Neisseria gonorrhoeae

- compound: "FC(F)(F)c1ccc2oc(Nc3nc(Cl)cs3)nc2c1"
  system.name: "Neisseria gonorrhoeae"
  IC50: "≤ 1 µM"
- compound: "NC(=O)c1csc(Nc2nc3ccc(C(F)(F)F)cc3o2)n1"
  system.name: "Neisseria gonorrhoeae"
  IC50: "≤ 1 µM"
- compound: "Fc1cc2nc(Nc3nnco3)oc2cc1OC(F)(F)F"
  system.name: "Neisseria gonorrhoeae"
  IC50: "≤ 0.1 µM"
- compound: "FC(F)(F)Oc1cc2nc(Nc3nnco3)oc2cc1Cl"
  system.name: "Neisseria gonorrhoeae"
  IC50: "≤ 1 µM"
- compound: "Cc1nnc(Nc2nc3cnc(C(F)(F)F)cc3o2)o1"
  system.name: "Neisseria gonorrhoeae"
  IC50: "≤ 10 µM"
- compound: "Cc1nnc(Nc2nc3c(Cl)cccc3o2)o1"
  system.name: "Neisseria gonorrhoeae"
  IC50: "≤ 1 µM"
- compound: "Cc1nnc(Nc2nc3cccc(Cl)c3o2)o1"
  system.name: "Neisseria gonorrhoeae"
  IC50: "≤ 1 µM"
- compound: "Cc1nc(Nc2nc3cc(C(F)(F)F)ccc3o2)oc1C"
  system.name: "Neisseria gonorrhoeae"
  IC50: "≤ 1 µM"
- compound: "NC(=O)c1nnc(Nc2nc3ccc(C(F)(F)F)cc3o2)o1"
  system.name: "Neisseria gonorrhoeae"
  IC50: "≤ 100 µM"
- compound: "Cc1cc(Cl)cc2oc(Nc3nnco3)nc12"
  system.name: "Neisseria gonorrhoeae"
  IC50: "≤ 0.1 µM"
- compound: "Cc1cc2oc(Nc3nnco3)nc2cc1F"
  system.name: "Neisseria gonorrhoeae"
  IC50: "≤ 0.1 µM"
- compound: "CC1CCN(Cc2nnc(Nc3nc4cc(C(F)(F)F)ccc4o3)o2)C1 (centres unmarked)"
  system.name: "Neisseria gonorrhoeae"
  IC50: "≤ 1 µM"
- compound: "CC(C)c1nnc(Nc2nc3ccc(Cl)cc3o2)o1"
  system.name: "Neisseria gonorrhoeae"
  IC50: "≤ 0.1 µM"
- compound: "FC(F)(F)c1ccc2nc(Nc3nnc(C4CC4)o3)oc2c1"
  system.name: "Neisseria gonorrhoeae"
  IC50: "≤ 0.1 µM"
- compound: "Clc1cccc2nc(Nc3nnc(CN4CCCC4)[nH]3)oc12"
  system.name: "Neisseria gonorrhoeae"
  IC50: "≤ 1 µM"
- compound: "CC(C)(C)OC(=O)N1CCN(c2nnc(Nc3nc4cc(C(F)(F)F)ccc4o3)o2)CC1"
  system.name: "Neisseria gonorrhoeae"
  IC50: "≤ 100 µM"
- compound: "Clc1ccc2oc(Nc3nc4cnccc4o3)nc2c1"
  system.name: "Neisseria gonorrhoeae"
  IC50: "≤ 0.1 µM"
